What follows is literature data on Ki for Cannabinoid receptor 2 (Homo sapiens).
readout: Ki (nM)

compound=Cc1c(C(=O)NN2CCOCC2)nc(-c2ccc(Cl)cc2Cl)n1-c1ccc(Cl)cc1 readout=Ki displayunit=nM censorsymbol== endpointresult=3300
compound="CNC(=NS(=O)(=O)c1cccc(Cl)c1)N1CC(c2ccccc2)C(c2ccc(Cl)cc2)=N1 (centres undefined)" readout=Ki displayunit=nM censorsymbol=> endpointresult=1000
compound=Nc1ccc(C(NC(=O)Cc2ccccc2)NC(=O)Cc2ccccc2)cc1 readout=Ki displayunit=nM censorsymbol== endpointresult=12600
compound=Cc1ccc(NC(=O)C(C)(C(F)(F)F)C(F)(F)F)cc1S(=O)(=O)N1CCOCC1 readout=Ki displayunit=nM censorsymbol== endpointresult=23
compound=C[C@H](NS(C)(=O)=O)c1ccc(Cc2ccc(OC(F)(F)F)cc2S(=O)(=O)c2ccccc2OC(F)(F)F)cc1 readout=Ki displayunit=nM censorsymbol== endpointresult=16
compound=O=C(NN1CCCCCC1)c1nn(-c2ccc(Cl)cc2Cl)c2c1CCCc1cc(Cl)ccc1-2 readout=Ki displayunit=nM censorsymbol== endpointresult=28.1
compound="Cc1c(C(=O)NCc2ccccc2Cl)oc2ccc(S(=O)(=O)N3CC(C)CC(C)C3)cc12 (centres undefined)" readout=Ki displayunit=nM censorsymbol== endpointresult=4800
compound=CCN1CCN(c2ncnc3oc(-c4ccccc4Cl)nc23)CC1 readout=Ki displayunit=nM censorsymbol== endpointresult=329
compound=Cc1c(C(=O)NN2CCCCC2)nc(-c2ccc(Cl)cc2Cl)n1-c1ccc(Cl)cn1 readout=Ki displayunit=nM censorsymbol== endpointresult=758
compound=O=S(=O)(NC1CCN(c2ncnc3c2nc(-c2ccccc2Cl)n3-c2ccc(Cl)cc2)CC1)c1ccccc1 readout=Ki displayunit=nM censorsymbol== endpointresult=5860
compound=O=C(Nc1ccc(Cl)cc1)Nc1cccc(Nc2cccc(N3CCCC3)n2)c1 readout=Ki displayunit=nM censorsymbol== endpointresult=52600
compound=CCCCCCCCCCOC(=O)c1c(O)c(-c2ccc(O)cc2)c[nH]c1=O readout=Ki displayunit=nM censorsymbol=> endpointresult=1000
compound=O=c1c2nn(-c3ccc(Cl)cc3)c(-c3ccccc3Cl)c2ncn1C1CCCCC1 readout=Ki displayunit=nM censorsymbol=> endpointresult=10000
compound=CCN(CC)C(=O)c1nc(-c2ccc(Cl)cc2Cl)n(-c2ccc(Cl)cc2)c1C readout=Ki displayunit=nM censorsymbol== endpointresult=2520
compound=Cc1c(C(=O)NC2CCCCC2)nc(-c2ccc(Cl)cc2Cl)n1-c1ccc(Cl)cc1 readout=Ki displayunit=nM censorsymbol== endpointresult=160
compound=O=S(=O)(NCC[C@@H]1CC[C@@H](c2ccc(Cl)cc2Cl)N(c2ccc(Cl)cc2)C1)c1cccnc1 readout=Ki displayunit=nM censorsymbol=> endpointresult=2220
compound=CC(=O)N1CCN(c2ncnc3oc(-c4ccccc4C(F)(F)F)nc23)CC1 readout=Ki displayunit=nM censorsymbol== endpointresult=254
compound=O=C(NN1CCCCC1)c1nc(-c2ccc(Cl)cc2)n(-c2ccc(Cl)cc2Cl)n1 readout=Ki displayunit=nM censorsymbol== endpointresult=5440
compound=CCC(F)(F)CN1CCOc2c(nn(-c3ccccc3Cl)c2-c2ccc(Cl)cc2)C1=O readout=Ki displayunit=nM censorsymbol=> endpointresult=10000

====

What follows is literature data on Ki for UniProtKB P34972.
readout: Ki (µM)

compound=Cc1c2c(n(-c3ccc(Cl)cc3Cl)c1-c1ccc(Cl)cc1)CCN(N1CCCCC1)C2=O readout=Ki displayunit=µM censorsymbol== endpointresult=1.3
compound="CC1CC(C)CN(S(=O)(=O)c2ccc(F)c(C(=O)NC(c3ccccc3)c3ccccc3)c2)C1 (centres undefined)" readout=Ki displayunit=µM censorsymbol== endpointresult=10
compound=O=C(N1CCCCC1)N1CC(O[C@H](c2ccc(Cl)cc2)c2cccnc2Cl)C1 readout=Ki displayunit=µM censorsymbol== endpointresult=10.9
compound=Cc1c(C(=O)OC(C)(C)C)nc(-c2ccc(Cl)cc2Cl)n1-c1ccc(Cl)cc1 readout=Ki displayunit=µM censorsymbol== endpointresult=0.815
compound="O=S(=O)(NCCC1CCC(c2ccc(Cl)cc2Cl)N(c2ccc(Cl)cc2)C1)C1CC1 (stereo in doubt; 14f)" readout=Ki displayunit=µM censorsymbol=> endpointresult=2.4
compound=Cc1c(C(=O)NCCCCCCCCNCc2ccccc2)nn(-c2ccc(Cl)cc2Cl)c1-c1ccc(Cl)cc1 readout=Ki displayunit=µM censorsymbol== endpointresult=31
compound=CCCNC(=O)N1CCC(NC(=O)c2nn(-c3ccc(Cl)cc3Cl)c(-c3ccc(Cl)cc3)c2C)CC1 readout=Ki displayunit=µM censorsymbol== endpointresult=8.46
compound=CN(C)Cc1nc(-c2cc(C(C)(C)C)c(O)c(C(C)(C)C)c2)cs1 readout=Ki displayunit=µM censorsymbol== endpointresult=6.24
compound=CCOC(=O)c1c(NS(=O)(=O)c2ccccc2)sc2c1CCCC2 readout=Ki displayunit=µM censorsymbol== endpointresult=1.99

====

What follows is literature data on log10 of Ki for Cannabinoid receptor 2 (Homo sapiens, UniProt P34972).
readout: log10 of Ki (log10 of the value in nM)

compound=CNC1(c2nc(-c3cc(C(C)(C)C)c(O)c(C(C)(C)C)c3)cs2)CCOCC1 targetentity="Cannabinoid receptor 2 (Homo sapiens, UniProt P34972)" endpointresult=2.16
compound=CC(=O)N/C(N)=N/C(=N/S(=O)(=O)N1CCC(C(F)(F)F)CC1)N1C[C@H](c2ccccc2)C(c2ccc(Cl)cc2)=N1 targetentity="Cannabinoid receptor 2 (Homo sapiens, UniProt P34972)" endpointresult=1.26
compound=CCN1CCN(c2nc(C)nc3sc(-c4ccccc4)cc23)CC1 targetentity="Cannabinoid receptor 2 (Homo sapiens, UniProt P34972)" endpointresult=1.91
compound=CCCCCn1cc(-c2nc(C34CC5CC(CC(C5)C3)C4)no2)c(=O)c2cc(-c3ccco3)ccc21 targetentity="Cannabinoid receptor 2 (Homo sapiens, UniProt P34972)" endpointresult=-0.40
compound=COc1ccc2c(c1)OC(C)(C)c1cn(CCN3CCN(C(=O)c4cccs4)CC3)nc1-2 targetentity="Cannabinoid receptor 2 (Homo sapiens, UniProt P34972)" endpointresult=1.19
compound=O=C(N[C@@H]1CCCC[C@H]1O)c1cnc(OCC2CC2)c(-c2cc(C(F)(F)F)ccc2Cl)c1 targetentity="Cannabinoid receptor 2 (Homo sapiens, UniProt P34972)" endpointresult=3.32
compound=Cc1c(C(=O)N[C@H]2CC[C@H](O)CC2)nc(-c2ccc(Cl)cc2Cl)n1-c1ccc(Cl)cc1 targetentity="Cannabinoid receptor 2 (Homo sapiens, UniProt P34972)" endpointresult=3.54
compound=Cc1ccc(NC(=O)c2cccc(Cl)c2)cc1S(=O)(=O)N1CCOCC1 targetentity="Cannabinoid receptor 2 (Homo sapiens, UniProt P34972)" endpointresult=2.08
compound=CC(C)NC(=O)NC1(c2ccccc2)CCN(c2ncnc3c2nc(-c2ccccc2Cl)n3-c2ccc(Cl)cc2)CC1 targetentity="Cannabinoid receptor 2 (Homo sapiens, UniProt P34972)" endpointresult=3.95
compound=O=C(NN1CCCCC1)c1nc(-c2ccc(Cl)cc2)c(-c2ccc(Cl)cc2Cl)s1 targetentity="Cannabinoid receptor 2 (Homo sapiens, UniProt P34972)" endpointresult=3.67
compound=Cc1c(C(=O)NCCCCCCCNS(N)(=O)=O)nn(-c2ccc(Cl)cc2Cl)c1-c1ccc(Cl)cc1 targetentity="Cannabinoid receptor 2 (Homo sapiens, UniProt P34972)" endpointresult=3.00
compound=CCCCCn1cc(-c2nnc(C34CC5CC(CC(C5)C3)C4)o2)c(=O)c2cc(-c3ccco3)ccc21 targetentity="Cannabinoid receptor 2 (Homo sapiens, UniProt P34972)" endpointresult=0.81
compound=C=C1CC/C=C(\C)CC[C@@H]2[C@@H]1CC2(C)C targetentity="Cannabinoid receptor 2 (Homo sapiens, UniProt P34972)" endpointresult=2.18
compound=C[C@H](NS(C)(=O)=O)c1ccc(S(=O)(=O)c2ccc(C(F)(F)F)cc2S(=O)(=O)c2ccccc2F)cc1 targetentity="Cannabinoid receptor 2 (Homo sapiens, UniProt P34972)" endpointresult=-0.05
compound="CCOc1ccccc1CNC(=O)c1oc2ccc(S(=O)(=O)N3CC(C)CC(C)C3)cc2c1C (stereo unspecified)" targetentity="Cannabinoid receptor 2 (Homo sapiens, UniProt P34972)" endpointresult=4.00
compound=Cc1c(C(=O)N2CCC(O)CC2)nc(-c2ccc(Cl)cc2Cl)n1-c1ccc(Cl)cc1 targetentity="Cannabinoid receptor 2 (Homo sapiens, UniProt P34972)" endpointresult=3.60
compound=CC(=O)N1CCN(c2ncnc3oc(-c4ccccc4Cl)nc23)CC1 targetentity="Cannabinoid receptor 2 (Homo sapiens, UniProt P34972)" endpointresult=2.83
compound=O=C(NC1CCCCC1)[C@@H]1CC[C@@H](c2ccc(Cl)cc2Cl)N(c2ccc(Cl)cc2)C1 targetentity="Cannabinoid receptor 2 (Homo sapiens, UniProt P34972)" endpointresult=2.57
compound="Cc1c(C(=O)NCc2ccccc2)oc2ccc(S(=O)(=O)N3CC(C)CC(C)C3)cc12 (stereo unspecified)" targetentity="Cannabinoid receptor 2 (Homo sapiens, UniProt P34972)" endpointresult=3.82
compound=Cc1ccc([C@@H](c2ccc(Cl)cc2Cl)N2CCN(C(=O)NC3CCCCC3)CC2)cc1 targetentity="Cannabinoid receptor 2 (Homo sapiens, UniProt P34972)" endpointresult=2.38
compound=COc1cccc(Cc2cc3c(OC)cc(Br)cc3oc2=O)c1 targetentity="Cannabinoid receptor 2 (Homo sapiens, UniProt P34972)" endpointresult=3.39
compound=CC(=O)N/C(N)=N/C(=N/S(=O)(=O)c1ccc(I)cc1)N1C[C@H](c2ccccc2)C(c2ccc(Cl)cc2)=N1 targetentity="Cannabinoid receptor 2 (Homo sapiens, UniProt P34972)" endpointresult=2.08
compound=C[C@H](NS(C)(=O)=O)c1ccc(S(=O)(=O)c2ccc(Cl)cc2S(=O)(=O)c2cccc(Cl)c2)cc1 targetentity="Cannabinoid receptor 2 (Homo sapiens, UniProt P34972)" endpointresult=1.36
compound=CC(=O)N1CCC(NC(=O)c2nn(-c3ccc(Cl)cc3Cl)c(-c3ccc(Cl)cc3)c2C)CC1 targetentity="Cannabinoid receptor 2 (Homo sapiens, UniProt P34972)" endpointresult=3.35
